B1: HDV Ribozyme (parent)
chain: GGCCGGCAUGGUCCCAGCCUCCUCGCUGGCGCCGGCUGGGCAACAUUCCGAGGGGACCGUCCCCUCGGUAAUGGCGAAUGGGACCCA

Variants of: B1
Test Details: self-cleavage, relative activity (ratio to wild type); higher = more cleavage; co-transcriptional
Values of self-cleavage greater than or equal to 0.1 map to fulfilled; values below map to not fulfilled.

Hi team, for GGCCGGCAUGGUCCCAGCCUCCUCACUGGCGCCGGCUGGGCAACAUUCCGAGGGCACCGUCCCCUCGGUAAUGGCGAAUGGGACCCA , is the recorded self-cleavage at or above 0.1?
fulfilled

Hi team, for GGCCGGCAUGGUCCCAGCCUCCUCGCUGGCGCCUGCUGGGCAACAUUCCGAGGGGACCGUCCCCUCGGUAAUGACGAAUGGGACCCA , is the recorded self-cleavage at or above 0.1?
not fulfilled

Hi team, for GGCCGGCAUGGUCCCAGCCUCCUCGCUGGCGCCGGCUGGGCCACAUUCCGAGGGGACCGUCCCCUCGGUGAUGGCGAAUGGGACCCA , is the recorded self-cleavage at or above 0.1?
fulfilled

Hi team, for GGCCGGCAUGGUCCCAGCCUCCUCGCUUGCGCCGGCUGGGCAACAUUCCGAGGGGCCCGUCCCCUCGGUAAUGGCGAAUGGGACCCA , is the recorded self-cleavage at or above 0.1?
not fulfilled

Hi team, for GGCCGGCAUGGUCCCAGGCUCCUCGCUGGCGGCGGCUGGGCAACAUUCCGAGGGGACCGUCCCCUCGGUAAUGGCGAAUGGGACCCA , is the recorded self-cleavage at or above 0.1?
fulfilled

Hi team, for GGCCGGCAUGGUUCCAGCCUCCUCGCUGGCGCCGGCUGGGCAACAUUCCGAGGGGACCCUCCCCUCGGUAAUGGCGAAUGGGACCCA , is the recorded self-cleavage at or above 0.1?
fulfilled
